tested on: T1, RADIL, Q96JH8
T1 sequence (Q96JH8 971-1071, limits assumed, looked up): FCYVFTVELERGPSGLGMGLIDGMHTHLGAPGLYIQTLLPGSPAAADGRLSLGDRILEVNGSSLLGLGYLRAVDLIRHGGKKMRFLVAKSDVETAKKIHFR
assay name: holdup assay
Parameters: key: below the threshold = too weak to quantify, mostly under pKd 3.1 to 4
setup conditions: plain residues with an end cap or a label only (N-terminal biotin on a linker: ado-ado)
property label: pKd

binder | property label | measured result
PEKVSNTTVV [IGSF5, Q9NSI5] | pKd | 4.3
NSTHNLKDYV [CLDN20, P56880] | pKd | 3.85
GNDPDRGTSI [GRID2, O43424] | pKd | below the threshold
DFKHTKSFII [JAM2, P57087] | pKd | 4.21
KAEEKPPSKV [SCN4B, Q8IWT1] | pKd | below the threshold
EPAKETTTNV [SLC2A3, P11169] | pKd | 3.62
AHGSTRDQSI [KCNB1, Q14721] | pKd | below the threshold
MQILSKPEFI [NPSR1, Q6W5P4] | pKd | 4.42

Task: Data request, read-out pKd, for DYSNLRETDI [ADRA1D, P25100]
Output: below the threshold

Task: Next entry: SQDPKKPSRV [CBY2, Q8NA61]
Output: 3.61

Task: Next entry: GTMFLRETSL [GUCY1A2, P33402]
Output: below the threshold
